Let's look at some binders and their measured glycan array binding signal (z-score).
System name: GalNAc(b1-6)GalNAc
Experiment notes: glycan array binding signal (z-score within array); higher = stronger binding
Condition details: glycan notation: IUPAC condensed, linker removed
The sample as a whole holds a higher share of the strongest signals than the screen did.

Binder	glycan array binding signal (z-score)
Clec49 (Caenorhabditis elegans) (protein) MTRLTLLLFGLLGAATAQTCNTGGIYNEQFNRCYQYFTAPAQFSFAEQQCNLLGGHLASVQNGQENALLQSNAANSFKRSNYSDYWIGATDLETSGTWKWTDPSVTFDYSNWQLGEPQSGSDCAIQDKGDGTWSAIGCTSYRPYVCVTPVIMTATCPPITTPIPTTCPTPAPCPIKQCVPSCDQGWTYFSPTDFCYRVYHGEKFNDAEASCVLLGGHLASIHSLTENTFVNNIASCGIKEGKYEHLAWIGMRKVGQDWVWTDGTPSDYFNWAPKQPDNPKKELCVQTAPDLSHDKWYENWNNLECNEVMRAYICKKASIHN	-0.155
SP15308F-bth-333-19-333 (Bacteroides thetaiotaomicron) (protein) SCNNEWESEQYVQMVSFKAPVNAQGVTPIYIRYKPEGKVTYQLPLIVSGSTMNSKDLNVHVGLDLDTLDVLNVEHFGSRKELFFKPLENKYYEFPETVQIPAGECTSLLPIDFALKDLDQVDKWVLPLAIQSNDPSHNYQANPRKFYRRAMLRISPFNDYSGQYSATAYKVYFKGNEKEAIVPEYHTSYVIDDKTIFFYAGLIDIDRLDRKYYKIKFEFTEEKIDLQTRKLKISSDNEDINLVVKGQPSYTVEEEMDATRPYLKHIYVTINNLEYEFTDYTSVPGYPLEYVVKGSLTMERKINTQIPDEDQAIEW	2.02
